Sourced from paper PMC3706558

Experimental system: Mtb ICDH-1 (Mycobacterium tuberculosis, UniProt P9WKL1)
Sequence (P9WKL1 whole entry): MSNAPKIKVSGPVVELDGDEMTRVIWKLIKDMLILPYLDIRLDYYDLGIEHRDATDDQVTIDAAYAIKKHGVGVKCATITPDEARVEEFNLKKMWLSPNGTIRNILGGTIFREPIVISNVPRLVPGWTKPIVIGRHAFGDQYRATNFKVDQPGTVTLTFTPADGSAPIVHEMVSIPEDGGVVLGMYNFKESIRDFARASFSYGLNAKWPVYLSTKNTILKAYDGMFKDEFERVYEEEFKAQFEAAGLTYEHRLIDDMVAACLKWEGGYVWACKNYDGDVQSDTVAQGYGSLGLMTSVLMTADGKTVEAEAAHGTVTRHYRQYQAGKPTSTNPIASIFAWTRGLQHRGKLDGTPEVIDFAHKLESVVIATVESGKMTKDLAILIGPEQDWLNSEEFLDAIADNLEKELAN
Experiment notes: NADPH formation at […] nm, dead-end inhibition
Format: biochemical
Measure: Ki (mM)
# output: bare number, implied unit mM

IN: Consider the compound O=C(O)C[C@H](O)C(=O)O [malate] and give its measured Ki.
OUT: 80
